Test system: Plasma
Test: Half life in CD-1 mouse plasma assessed as N-(N-(((2R,3R,4R,5R)-5-(6-amino-9H-purin-9-yl)-4-fluoro-3-hydroxytetrahydrofuran-2-yl)methyl)sulfamoyl)-2-hydroxybenzamide by HPLC method
Format: ADME, cell-free
Label scheme for t1/2: lower than 2 h is no, 2 h and above is yes.

>>> df
                               recordsmiles  systemtested  discretelabel
0  CC(=O)O[C@H]1[C@@H](F)[C@H](n2cnc3c(N)ncnc32)O[C@@H]1CNS(=O)(=O)NC(=O)c1ccccc1O.CCN(CC)CC        Plasma            yes
1  CC(C)C(=O)O[C@H]1[C@@H](F)[C@H](n2cnc3c(N)ncnc32)O[C@@H]1CNS(=O)(=O)NC(=O)c1ccccc1O.CCN(CC)CC        Plasma            yes
2  CCCCC(=O)O[C@H]1[C@@H](F)[C@H](n2cnc3c(N)ncnc32)O[C@@H]1CNS(=O)(=O)NC(=O)c1ccccc1O.CCN(CC)CC        Plasma             no
3  CCCCCCCCCCCC(=O)O[C@H]1[C@@H](F)[C@H](n2cnc3c(N)ncnc32)O[C@@H]1CNS(=O)(=O)NC(=O)c1ccccc1O.CCN(CC)CC        Plasma             no
4  CCC(=O)O[C@H]1[C@@H](F)[C@H](n2cnc3c(N)ncnc32)O[C@@H]1CNS(=O)(=O)NC(=O)c1ccccc1O.CCN(CC)CC        Plasma            yes
5  CCCCCCCC(=O)O[C@H]1[C@@H](F)[C@H](n2cnc3c(N)ncnc32)O[C@@H]1CNS(=O)(=O)NC(=O)c1ccccc1O.CCN(CC)CC        Plasma             no
6  CCCC(=O)O[C@H]1[C@@H](F)[C@H](n2cnc3c(N)ncnc32)O[C@@H]1CNS(=O)(=O)NC(=O)c1ccccc1O.CCN(CC)CC        Plasma            yes

---

Assay: Permeability from basolateral to apical side in human Caco2 cells assessed as prodrug remaining in apical side for 2 hrs by HPLC method
Format: ADME, cell-based
Settings: caco-2, 2 h
reportedEndpoint: permeability (%)

>>> df
                               recordsmiles  obsvalue
0  CCC(CC)C(=O)O[C@H]1[C@@H](F)[C@H](n2cnc3c(N)ncnc32)O[C@@H]1CNS(=O)(=O)NC(=O)c1ccccc1O.CCN(CC)CC        78
1  CC(C)C(=O)O[C@H]1[C@@H](F)[C@H](n2cnc3c(N)ncnc32)O[C@@H]1CNS(=O)(=O)NC(=O)c1ccccc1O.CCN(CC)CC        53
2  CCCC(=O)O[C@H]1[C@@H](F)[C@H](n2cnc3c(N)ncnc32)O[C@@H]1CNS(=O)(=O)NC(=O)c1ccccc1O.CCN(CC)CC        15
3  CCCCCCCC(=O)O[C@H]1[C@@H](F)[C@H](n2cnc3c(N)ncnc32)O[C@@H]1CNS(=O)(=O)NC(=O)c1ccccc1O.CCN(CC)CC         1
4  CC(=O)O[C@H]1[C@@H](F)[C@H](n2cnc3c(N)ncnc32)O[C@@H]1CNS(=O)(=O)NC(=O)c1ccccc1O.CCN(CC)CC        88

---

Assay: Permeability from basolateral to apical side in human Caco2 cells assessed as prodrug remaining in basolateral side for 2 hrs by HPLC method
Type: ADME, cell-based
Settings: caco-2, 2 h
reportedEndpoint: permeability (%)

>>> print(df.to_string())
                               recordsmiles  obsvalue
0  CCCCCCCC(=O)O[C@H]1[C@@H](F)[C@H](n2cnc3c(N)ncnc32)O[C@@H]1CNS(=O)(=O)NC(=O)c1ccccc1O.CCN(CC)CC        90
1  CC(C)C(=O)O[C@H]1[C@@H](F)[C@H](n2cnc3c(N)ncnc32)O[C@@H]1CNS(=O)(=O)NC(=O)c1ccccc1O.CCN(CC)CC        95
2  CCC(CC)C(=O)O[C@H]1[C@@H](F)[C@H](n2cnc3c(N)ncnc32)O[C@@H]1CNS(=O)(=O)NC(=O)c1ccccc1O.CCN(CC)CC        99
3  CC(=O)O[C@H]1[C@@H](F)[C@H](n2cnc3c(N)ncnc32)O[C@@H]1CNS(=O)(=O)NC(=O)c1ccccc1O.CCN(CC)CC        86
4  CCCC(=O)O[C@H]1[C@@H](F)[C@H](n2cnc3c(N)ncnc32)O[C@@H]1CNS(=O)(=O)NC(=O)c1ccccc1O.CCN(CC)CC        93
